# measured.on: human ATGL (Homo sapiens)
# Construct: made in house; host or cells: Expi cells (lysate, not purified)
# Sequence (Q96AD5 1-504): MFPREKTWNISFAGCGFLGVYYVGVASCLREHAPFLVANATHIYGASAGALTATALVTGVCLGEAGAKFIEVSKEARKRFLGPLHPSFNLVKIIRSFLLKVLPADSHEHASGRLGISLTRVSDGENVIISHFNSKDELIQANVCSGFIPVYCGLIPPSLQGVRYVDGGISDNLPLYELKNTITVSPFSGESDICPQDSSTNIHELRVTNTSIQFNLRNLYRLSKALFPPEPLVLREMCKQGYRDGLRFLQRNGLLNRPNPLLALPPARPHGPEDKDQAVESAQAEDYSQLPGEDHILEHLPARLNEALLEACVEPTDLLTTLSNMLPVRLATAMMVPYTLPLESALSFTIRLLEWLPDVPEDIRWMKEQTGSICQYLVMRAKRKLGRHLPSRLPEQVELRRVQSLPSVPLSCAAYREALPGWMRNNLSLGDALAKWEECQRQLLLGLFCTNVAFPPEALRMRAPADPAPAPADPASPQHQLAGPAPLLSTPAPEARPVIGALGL
# measurement.notes: TG hydrolase activity, Expi cell lysates expressing human ATGL + CGI-58, radiolabelled triolein
# Type: biochemical
# setup.conditions: Example 237; read-out: Inhibition of human ATGL − IC50
outcome.measure: IC50 (µM)
Just the number please, in µM, no unit attached.

Known results for compounds:
# compound, outcome.measure, observed.result
data = [
    ("C=C(C)COC(=O)c1csc(-c2ccc(OCC)cc2)n1", "IC50", 4),
    ("CCOc1ccc(-c2cccc(C(=O)OC3CC3)n2)cc1", "IC50", 5),
    ("CCOC(=O)c1csc(-c2ccc(OC)cc2)n1", "IC50", 6),
    ("C=CCOC(=O)c1cccc(-c2ccc(OCC)cc2)n1", "IC50", 6),
    ("CCOC(=O)c1nc(-c2ccc(OCC)cc2)sc1C(C)=O", "IC50", 20),
    ("CCOc1ccc(-c2nc(C(=O)OCC=C(C)C)cs2)cc1", "IC50", 20),
]

Kindly note the recorded IC50 for `CCCOc1ccc(-c2cccc(C(=O)OC(C)C)n2)cc1` , which is 3

The reported value for COc1cc(C(=O)OC(C)C)nc(-c2ccc(C(C)OC)cc2)c1 (stereo not shown) in terms of IC50 is 2

# IC50 of `CC(C)OC(=O)c1ccc(-c2cccc(C(=O)OC(C)C)n2)cc1` = 20

Entry CCOc1ccc(-c2nc(C(=O)OC(C)CC)cs2)cc1 (stereo not shown) — recorded IC50 = 3
